Entries and their measured IC50 follow.
# study-system: RORγt (Mus musculus, UniProt P51450, T352K)
# Sequence (P51450 with tags, fused parts or gaps T352K): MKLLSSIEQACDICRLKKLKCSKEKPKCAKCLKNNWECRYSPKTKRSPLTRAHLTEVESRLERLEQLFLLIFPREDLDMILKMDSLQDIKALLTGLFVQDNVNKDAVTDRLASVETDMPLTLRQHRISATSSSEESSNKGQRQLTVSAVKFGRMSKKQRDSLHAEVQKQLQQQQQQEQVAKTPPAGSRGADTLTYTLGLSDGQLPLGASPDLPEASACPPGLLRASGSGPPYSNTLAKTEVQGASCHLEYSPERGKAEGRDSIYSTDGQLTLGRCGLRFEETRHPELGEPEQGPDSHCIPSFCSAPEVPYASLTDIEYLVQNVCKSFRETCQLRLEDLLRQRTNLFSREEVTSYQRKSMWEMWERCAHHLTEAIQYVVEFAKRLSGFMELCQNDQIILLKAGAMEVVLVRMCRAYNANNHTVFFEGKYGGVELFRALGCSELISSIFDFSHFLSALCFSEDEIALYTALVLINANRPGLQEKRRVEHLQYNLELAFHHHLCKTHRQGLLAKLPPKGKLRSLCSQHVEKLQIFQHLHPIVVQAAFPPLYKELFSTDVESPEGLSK
# procedure-details: RORγt S2 cell Gal4-luciferase reporter assay
# study-conditions: IC50(μM), Drosophila S2 cells, Gal4-RORγt luciferase reporter, 20 hr

compound: CCc1ccc(O)c(C(CC(=O)N2CCCC(C)C2)c2ccc3c(c2)OCO3)c1 (centres unmarked)
readout-kind: IC50
data-value: 11 to 50 µM

compound: CC1CCCN(C(=O)CC(c2ccc3c(c2)OCO3)c2c(O)ccc3ccccc23)C1 (centres unmarked)
readout-kind: IC50
data-value: 1 to 10 µM

Q: Write IC50 of COc1cc(OC)c(C(CC(=O)N2CCCC(C)C2)c2ccc3c(c2)OCO3)c(OCc2ccccc2)c1 (centres unmarked) ; system used: RORγt (Mus musculus, UniProt P51450, T352K)
Ans: 1 to 10 µM

Q: Write IC50 of CC1CC(C)CN(C(=O)CC(c2ccc(-n3cncn3)cc2)c2ccc3c(c2)OCO3)C1 (centres unmarked) ; system used: RORγt (Mus musculus, UniProt P51450, T352K)
Ans: 11 to 50 µM

Q: Write IC50 of COc1cc(O)c(C(CC(=O)N2CC(C)CC(C)C2)c2cccc(OC(F)(F)F)c2)c(OC)c1 (centres unmarked) ; system used: RORγt (Mus musculus, UniProt P51450, T352K)
Ans: 1 to 10 µM

Q: Write IC50 of CC1CCCN(C(=O)CC(c2ccc3c(c2)OCO3)c2ccc(I)cc2O)C1 (centres unmarked) ; system used: RORγt (Mus musculus, UniProt P51450, T352K)
Ans: 11 to 50 µM

Q: Write IC50 of CC1CC(C)CN(C(=O)CC(c2ccc3c(c2)OCO3)c2cccc(F)c2O)C1 (centres unmarked) ; system used: RORγt (Mus musculus, UniProt P51450, T352K)
Ans: 11 to 50 µM

Q: Write IC50 of COc1ccccc1C(CC(=O)N1C[C@H](C)C[C@H](C)C1)c1ccccc1 (some centres unmarked) ; system used: RORγt (Mus musculus, UniProt P51450, T352K)
Ans: > 50 µM

Just for reference, patent US10561666B2 is where these values come from.
